experimental.conditions: in n-butanol, 288.15 K
property.name: solubility (mole fraction)

INSERT INTO measurements (compound, recorded_result) VALUES
  ('CC(C)(C)[C@H](O)[C@H](Cc1ccc(Cl)cc1)n1cncn1 (racemic)', 0.0173);
